Taken from paper doi:10.1101/525105v1.

# EXPERIMENTAL DETAILS: in vitro
# CONDITIONS: human, tzm-bl cells

MOL: CC(C)Oc1ccc2ccccc2c1-c1cccc2cccnc12
UNIT ANNOTATION: µM
RELATION QUALIFIER: >
CC50: 100
--
MOL: CCN(CC)OC(=O)c1ccc2ccccc2c1-c1cccc2cccnc12
UNIT ANNOTATION: µM
RELATION QUALIFIER: =
CC50: 69.3
--
MOL: CC(C)Oc1ccc2cccnc2c1-c1cccc2ccccc12
UNIT ANNOTATION: µM
RELATION QUALIFIER: =
CC50: 68.5
--
MOL: CCN(CC)C(=O)Oc1ccc2cccnc2c1-c1cccc2cccnc12
UNIT ANNOTATION: µM
RELATION QUALIFIER: >
CC50: 200
--
MOL: CC(C)Oc1ccc2cccnc2c1-c1cccc2cccnc12
UNIT ANNOTATION: µM
RELATION QUALIFIER: >
CC50: 200
